Sourced from the supplement of paper PMC10981050

Provide the recorded cell viability for the entries that follow.
# Tested on: MOLM14
# Measurement Description: cell viability relative to vehicle control; higher = less cytotoxic;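 further: after 48 h exposure read by CellTiter-Glo luminescence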
# Condition Details: 10 µM; SRSF2 genotype: SRSF2 P95H/wt
Structures can show the parent of a compound that is named as a salt.
Report the figure in % without appending any unit label.

stdin: Return the recorded cell viability value; entry: NC[C@@](O)(c1ccc(Cl)cc1)c1ccc(-c2cn[nH]c2)cc1
stdout: 29.3

stdin: Return the recorded cell viability value; entry: Cc1ccc2c(c1)C(=O)C1(O)CCN(c3ccccc3)C1=N2 (single isomer, unassigned; (-)) [(-)-Blebbistatin]
stdout: 61.3

stdin: Return the recorded cell viability value; entry: COc1cc2nc(N3CCN(C(=O)C4COc5ccccc5O4)CC3)nc(N)c2cc1OC (stereo not drawn) [Doxazosin mesylate]
stdout: 92.2

stdin: Return the recorded cell viability value; entry: CO[C@H]1/C=C/O[C@@]2(C)Oc3c(C)c(O)c4c(O)c(cc(O)c4c3C2=O)NC(=O)/C(C)=C\C=C\[C@H](C)[C@H](O)[C@@H](C)[C@@H](O)[C@@H](C)[C@H](OC(C)=O)[C@@H]1C [Rifamycin sodium salt]
stdout: 0.49

stdin: Return the recorded cell viability value; entry: O[C@@H](COc1cccc2ncccc12)CN1CCN([C@@H]2c3ccccc3[C@@H]3[C@H](c4ccccc42)C3(F)F)CC1
stdout: 39.8

stdin: Return the recorded cell viability value; entry: O=C(c1ccc(F)cc1)C1CCN(CCn2c(=O)[nH]c3ccccc3c2=O)CC1
stdout: 107

stdin: Return the recorded cell viability value; entry: COc1cc2oc(=O)ccc2cc1O
stdout: 104

stdin: Return the recorded cell viability value; entry: O=C(COc1ccc(Cl)cc1)NC1CCC(NC(=O)COc2ccc(Cl)cc2)CC1 (stereo not drawn) [ISRIB (trans-isomer)]
stdout: 107

###

# Tested on: MOLM14
# Measurement Description: cell viability relative to vehicle control; higher = less cytotoxic
# Condition Details: 10 µM; SRSF2 genotype: SRSF2 wt/wt
Structures can show the parent of a compound that is named as a salt.
Measured Parameter: cell viability
Hi, when you answer, please include the unit after the number. Thanks!

stdin: Return the recorded cell viability value; entry: C=C1CC[C@H]2C(=C)CC[C@H]3C(=C)C(=O)O[C@@H]3[C@@H]12 [Dehydrocostus Lactone]
stdout: 11.1%

stdin: Return the recorded cell viability value; entry: CC(=O)Oc1cccc2ccccc12 [1-Naphthyl acetate]
stdout: 93.8%

stdin: Return the recorded cell viability value; entry: CO/N=C(\C(=O)N[C@@H]1C(=O)N2C(C(=O)O)=C(CSc3nnnn3C)CS[C@H]12)c1csc(N)n1 [Cefmenoxime hydrochloride]
stdout: 98.8%

stdin: Return the recorded cell viability value; entry: Nc1nc2c(ncn2COCCO)c(=O)[nH]1
stdout: 99.1%

###

Provide the recorded cell viability for the entries that follow.
# System: MOLM14
# Measurement Description: cell viability relative to vehicle control; higher = less cytotoxic
# Condition Details: 10 µM; SRSF2 genotype: SRSF2 wt/wt
Report the figure in % without appending any unit label.

stdin: Return the recorded cell viability value; entry: CCOC(=O)C1=C[C@]2(CC)CCCN3CCc4c(n1c1ccccc41)[C@@H]32 [Vinpocetine (Cavinton)]
stdout: 101

stdin: Return the recorded cell viability value; entry: Cc1ccc(Nc2cc(N[C@@H]3CCCC[C@@H]3N)nnc2C(N)=O)nc1C
stdout: 18

stdin: Return the recorded cell viability value; entry: CCOC(=O)COc1ccc(/C=C2/SC(=S)NC2=O)cc1OC
stdout: 3.45

stdin: Return the recorded cell viability value; entry: [Na+].[Na+].[Na+].[Na+].[Na+].[Na+].[O]=[W](=[O])([O-])[O-].[O]=[W](=[O])([O-])[O-].[O]=[W](=[O])([O-])[O-].[O]=[W](=[O])=[O].[O]=[W](=[O])=[O].[O]=[W](=[O])=[O].[O]=[W](=[O])=[O].[O]=[W](=[O])=[O].[O]=[W](=[O])=[O].[O]=[W](=[O])=[O].[O]=[W](=[O])=[O].[O]=[W](=[O])=[O] [SodiuM Metatungstate]
stdout: 109

stdin: Return the recorded cell viability value; entry: COC(c1ccccc1)(c1ccccc1)[C@H](Oc1nc(C)cc(C)n1)C(=O)O [Ambrisentan]
stdout: 103

stdin: Return the recorded cell viability value; entry: Cc1cccc(Nc2cc(Cl)nc(SCC(=O)O)n2)c1C
stdout: 98.5

stdin: Return the recorded cell viability value; entry: CC(C)=CCc1cc2c(cc1O)oc(=O)c1c3ccc(O)cc3oc21 [Psoralidin]
stdout: 107

###

# System: MOLM14
# Measurement Description: cell viability relative to vehicle control; higher = less cytotoxic
# Condition Details: 10 µM; SRSF2 genotype: SRSF2 wt/wt
Provide the recorded cell viability for the entries that follow.

stdin: Return the recorded cell viability value; entry: Cn1cc(-c2ccncc2)c(-c2ccc(OCc3ccc4ccccc4n3)cc2)n1
stdout: 71.4%

stdin: Return the recorded cell viability value; entry: CC(C)c1c2cc(-c3ccnc(NC4CCC(NC5CCOCC5)CC4)n3)ccc2nn1C (configuration not stated)
stdout: 0.31%

stdin: Return the recorded cell viability value; entry: N#Cc1cc2cc(CN3CCC(Nc4ncnc5sc(CC(F)(F)F)cc45)CC3)ccc2[nH]1
stdout: 23.4%

stdin: Return the recorded cell viability value; entry: C[N+]1(C)CCC(=C(c2ccccc2)c2ccccc2)CC1 [Diphemanil Methylsulfate]
stdout: 98.6%

stdin: Return the recorded cell viability value; entry: O=C1/C(=C/c2cccs2)CC/C1=C\c1cccs1
stdout: 99.2%

stdin: Return the recorded cell viability value; entry: CCCCCCCCCCCCCCCCCCCC(=O)O
stdout: 103%

stdin: Return the recorded cell viability value; entry: O=C1c2c(O)ccc(O)c2C(=O)c2c(NCCNCCO)ccc(NCCNCCO)c21 [Mitoxantrone 2HCl]
stdout: 0.15%

###

# Test system: OCI-AML2
# Measurement Description: cell viability relative to vehicle control; higher = less cytotoxic
# Condition Details: 10 µM; SRSF2 genotype: wt/wt
Provide the recorded cell viability for the entries that follow.
Report the figure in % without appending any unit label.

stdin: Return the recorded cell viability value; entry: CC(C)(O)C1CCC(C)(C2C(O)CC3(C)C4CC(O)C5C(C)(C)C(O)CCC56CC46CCC23C)O1 (stereo not drawn)
stdout: 103

stdin: Return the recorded cell viability value; entry: CCNC(=O)CCC/C=C\C[C@@H]1[C@@H](/C=C/[C@@H](O)CCc2ccccc2)[C@H](O)C[C@@H]1O
stdout: 98.8

stdin: Return the recorded cell viability value; entry: O=c1c(O)c(-c2ccc(O)c(O)c2)oc2cc(O)cc(O)c12 [Quercetin (Sophoretin)]
stdout: 81.5

stdin: Return the recorded cell viability value; entry: C[C@@H]1C/C=C/C=C/C=C/C=C/[C@H](O[C@@H]2O[C@H](C)[C@@H](O)[C@H](N)[C@@H]2O)C[C@@H]2O[C@](O)(C[C@@H](O)C[C@H]3O[C@@H]3/C=C/C(=O)O1)C[C@H](O)[C@H]2C(=O)O
stdout: 110

stdin: Return the recorded cell viability value; entry: CC[C@H]1OC(=O)[C@H](C)[C@@H](O[C@H]2C[C@@](C)(OC)[C@@H](O)[C@H](C)O2)[C@H](C)[C@@H](O[C@@H]2O[C@H](C)C[C@H](N(C)C)[C@H]2O)[C@](C)(O)C[C@@H](C)[C@@H]2N[C@@H](COCCOC)O[C@H]([C@H]2C)[C@]1(C)O
stdout: 107

stdin: Return the recorded cell viability value; entry: COc1cc(OCc2cccc(-c3ccccc3)c2C)cc(OC)c1CN1CCCC[C@H]1C(=O)O
stdout: 73.2

stdin: Return the recorded cell viability value; entry: CCCOc1ccc2[nH]c(NC(=O)OC)nc2c1
stdout: 8.07

stdin: Return the recorded cell viability value; entry: Cc1cc(C2CCCCC2)n(O)c(=O)c1 [Ciclopirox (Penlac)]
stdout: 16.3

###

# Test system: MARIMO
# Measurement Description: cell viability relative to vehicle control; higher = less cytotoxic
# Condition Details: 10 µM; SRSF2 genotype: SRSF2 P95H/wt
Where a name gives a salt, the structure may show the parent alone.
Provide the recorded cell viability for the entries that follow.
Report the figure in % without appending any unit label.

stdin: Return the recorded cell viability value; entry: O=C(O)C=Cc1cccc(O)c1 [3-Hydroxycinnamic acid]
stdout: 86.6

stdin: Return the recorded cell viability value; entry: Cc1nccn1CCC(C(N)=O)(c1ccccc1)c1ccccc1
stdout: 87.6

stdin: Return the recorded cell viability value; entry: O=C(c1ccc(C(=O)N2CCC(N3CCCC3)CC2)c(Nc2ccccc2)c1)N1CCC(N2CCCC2)CC1
stdout: 81.1

stdin: Return the recorded cell viability value; entry: COc1c(C)c2c(c(O)c1C/C=C(\C)CCC(=O)O)C(=O)OC2
stdout: 42.2

stdin: Return the recorded cell viability value; entry: COC1=C(OC)C(=O)C(CCCCCCCCCCO)=C(C)C1=O
stdout: 85.6

stdin: Return the recorded cell viability value; entry: CCc1ccc(CCOc2ccc(CC3SC(=O)NC3=O)cc2)nc1 (stereo unspecified)
stdout: 104

stdin: Return the recorded cell viability value; entry: CC#CC(=O)N1CC[C@@H](n2c(=O)n(-c3ccc(Oc4ccccc4)cc3)c3c(N)ncnc32)C1 [ONO-4059 (GS-4059) hydrochloride]
stdout: 97.2

stdin: Return the recorded cell viability value; entry: Cc1nc(NC(=O)N2CCC[C@H]2C(N)=O)sc1-c1csc(C(C)(C)C)n1
stdout: 64.9

stdin: Return the recorded cell viability value; entry: COc1cc2c(cc1O)CC[n+]1cc3c(OC)c(OC)ccc3cc1-2 [Jatrorrhizine]
stdout: 107

stdin: Return the recorded cell viability value; entry: CC1C(=O)OC2C(O)C34C5CC(C(C)(C)C)C36C(OC(=O)C6O)OC4(C(=O)O5)C12O (stereo unspecified) [Ginkgolide B]
stdout: 111

stdin: Return the recorded cell viability value; entry: COc1ccc(/C=C/C(=O)Nc2ccccc2C(=O)O)cc1OC
stdout: 108

stdin: Return the recorded cell viability value; entry: C=CC(=O)Nc1cccc(Oc2nc(Nc3ccc(N4CCN(C)CC4)cc3OC)ncc2Cl)c1
stdout: 85.8

stdin: Return the recorded cell viability value; entry: CN1CCC(COc2cnc(-c3cccc(Cn4nc(-c5cccc(C#N)c5)ccc4=O)c3)nc2)CC1
stdout: 61.7

stdin: Return the recorded cell viability value; entry: CCOCC(O)COc1ccc(NC(=O)CC[S+](C)C)cc1 (stereo unspecified) [Suplatast tosylate]
stdout: 97.7

stdin: Return the recorded cell viability value; entry: Cc1nc(-c2cccnc2)sc1C(=O)Nc1ccccc1-c1cn2c(CN3CCOCC3)csc2n1
stdout: 107

stdin: Return the recorded cell viability value; entry: COc1ccc(CCNCc2ccc(OCc3ccc(Cl)nc3)c(OC)c2)cc1OC
stdout: 87.4
